tested on: secretion of gastric fluids; test: anti-secretory activity in pylorus-ligated rats (method of Shay et al.); type: in vivo, male albino Wistar rats; conditions: i.p., 100 mg./kg.
Endpoint Name: pH of the gastric fluid
Form rule: numeric answer, no unit written next to it.

Inquiry: Indicate its recorded pH of the gastric fluid; the molecule in question is Cc1c(CO)n(CCC(N)=O)c2ccccc12
Reply text: 1.7

Inquiry: Please supply the value of reported pH of the gastric fluid for the item Cc1c(C(=O)C(F)(F)F)c2ccccc2n1CCC(N)=O
Reply text: 3.8

Inquiry: Return the recorded pH of the gastric fluid value; entry: Cc1c(CO)c2ccccc2n1CCC(N)=O
Reply text: 7.0

Inquiry: Determine its reported pH of the gastric fluid: Cc1c(CO)c2ccccc2n1CCCC(N)=O
Reply text: 2.4

Inquiry: Please list pH of the gastric fluid recorded for the molecule Cc1c(CO)c2ccccc2n1CC(N)=O
Reply text: 2.0

Inquiry: Answer with reported pH of the gastric fluid of Cc1c(CO)c2cc(F)ccc2n1CCC(N)=O
Reply text: 5.9

Inquiry: Supply recorded pH of the gastric fluid for Cc1c(C=O)n(CCC(N)=O)c2ccccc12 here.
Reply text: 2.30

Inquiry: Please give measured pH of the gastric fluid of the following entry: Cc1c(C(O)C(F)(F)F)c2ccccc2n1CCC(N)=O (stereo not drawn)
Reply text: 1.2

Inquiry: Query pH of the gastric fluid for Cc1c(-c2ccccc2)n(CCC(N)=O)c2ccccc12
Reply text: 1.7
